# System: SW684;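 note: growth inhibition of human SW684 cells, measured by a cell viability assay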
# ASSAY_COMMENT: cells
# Format: functional, cell-based, Homo sapiens
# REPORTED_CONDITIONS: Homo sapiens, SW684
# Description: SANGER: Inhibition of human SW684 cell growth in a cell viability assay.
pIC50: −log10 of the molar value.
QUANTITY_MEASURED: pIC50

Examples with answers:
{"COMPOUND": "CN(Cc1cnc2nc(N)nc(N)c2n1)c1ccc(C(=O)N[C@@H](CCC(=O)O)C(=O)O)cc1 [METHOTREXATE]", "pIC50": "< 6.70"}
{"COMPOUND": "C[C@]1(O)C[C@@H](c2nc(-c3ccc4ccc(-c5ccccc5)nc4c3)c3c(N)nccn32)C1", "pIC50": "< 5.59"}

In the following, a different compound is considered.
Q: Quick one: pIC50 of C=C1C(=O)O[C@@H]2C3O[C@]3(C)CC/C=C(\C)CC[C@@H]12 (stereo partly drawn) ?
Result: < 5.30

meta.source: ChEMBL document CHEMBL1201861
